- tgt: CD28 (Homo sapiens, UniProt P10747)
- test name: Jurkat/IL2 + CHO/OKT3 +/- PD-L1 reporter assay: PD-L1-dependent CD28 costimulation
- Assay type: cell-based
- Set-up: host or cells: Jurkat cells expressing an IL-2-luciferase reporter
- assay conditions: CHO/OKT3 aAPC, no PD-L1; […]; luciferase signal
Measured PD-L1-Dependent CD28 Costimulation, No PD-L1, […] of individual entries
reported endpoint: PD-L1-Dependent CD28 Costimulation, No PD-L1, […]

[[record]]
molecule = "E35G/K54E/A71D/L72P: variant CD80 IgV-Fc, IgV SEQ ID NO:219 (protein) VIHVTKEVKEVATLSCGHNVSVEELAQTRIYWQKGKKMVLTMMSGDMNIWPEYENRTIFDITNNLSIVILDPRPSDEGTYECVVLKYEKDAFKREHLAEVTLSVKAD"
measured_result = 417

[[record]]
molecule = "E23G/A26S/E35D/T62N/A71D/L72V/L85M: variant CD80 IgV-Fc, IgV SEQ ID NO:216 (protein) VIHVTKEVKEVATLSCGHNVSVGELSQTRIYWQKDKKMVLTMMSGDMNIWPEYKNRTIFDINNNLSIVILDVRPSDEGTYECVVMKYEKDAFKREHLAEVTLSVKAD"
measured_result = 566


Recorded values, source patent US20220177587A1.
